property_name: melting point

Examples with their reported melting point follow.
• Cc1nnc(C)c(-c2c(F)cccc2Cl)c1-c1ccc2ccccc2c1 = 120 to 123 °C
• Cc1n[nH]c(=O)c(-c2c(F)cc(F)cc2F)c1-c1ccc2ccccc2c1 = 266 to 268 °C
• COc1nnc(C)c(-c2ccc3ccccc3c2)c1-c1c(F)cc(F)cc1F = 138 to 140 °C

Please report the recorded melting point for COc1nnc(C)c(-c2ccc3ccccc3c2)c1-c1c(F)cccc1Cl .
182 to 184 °C

Please report the recorded melting point for Cc1nnc(Cl)c(-c2c(F)cc(F)cc2F)c1-c1ccc2ccccc2c1 .
86 to 89 °C

Please report the recorded melting point for Cc1nnc(F)c(-c2c(F)cc(F)cc2F)c1-c1ccc2ccccc2c1 .
108 to 110 °C

Numbers sourced from patent US20100144674A1.
